- Read-out: Interleukin-6 (IL6), IL6 (gene 3569)
- Protocol Description: BSK_CASM3C_IL6: BioMAP Diversity Plus: CASM3C Assay for Interleukin-6 (IL6) Biomarker Activity for (AID 2283040)
- Experimental Setup: primary human coronary artery smooth muscle cells; actives raise or lower the signal
Calls of active or inactive are those of the source. How the source made its calls: active means hit-call score of the fitted dose curve at least 0.9, where 1 is the maximum; inactive means score below 0.9.
Lab note: assign the record to one of active, inactive

// query Record request — test call for CC(=O)OCCC(C)CC(C)(C)C (stereo unspecified)
// result inactive

// query // query: "C#C[C@]1(O)CC[C@H]2[C@@H]3CCC4=Cc5oncc5C[C@]4(C)[C@H]3CC[C@@]21C"
// result inactive

// query // query: "CCCCC/C=C/C=C/C=O"
// result inactive

// query // query: "O=C1OC2(c3cc(Br)c(O)c(Br)c3Oc3c2cc(Br)c(O)c3Br)c2c(Cl)c(Cl)c(Cl)c(Cl)c21"
// result inactive

// query // query: "C=C[Si](OCC)(OCC)OCC"
// result inactive

// query // query: CCCCCCCCCCCCCCCCCC(=O)OCC(CC)CCCC (stereo unspecified)
// result inactive

All values here come from PubChem BioAssay (EPA / NIEHS).
